Each entry below carries its recorded Dissociation percent 15 s.
Conditions: rabbit plasma, 37° C., 15 s, HPLC
# output: numeric value plus its unit

# compound, measurement name, observed measurement
rows = [
    ("CCN(C)CCC(F)C(=O)Oc1c(C(C)C)cccc1C(C)C.Cl (racemic)", "Dissociation percent 15 s", "58.3%"),
    ("CC(C)c1cccc(C(C)C)c1OC(=O)C(F)CCCC(=O)[O-].CC(C)c1cccc(C(C)C)c1OC(=O)C(F)CCCC(=O)[O-].[Zn+2] (stereo not drawn)", "Dissociation percent 15 s", "34.9%"),
]

Consider the record given below.
Asked: Any idea what Dissociation percent 15 s was measured for `CC(C)c1cccc(C(C)C)c1OC(=O)[C@@H](CCN(C)C)C(F)(F)F.Cl` ?
Given back: 51.7%
